Data provenance: patent US20250186627A1

Tested on: NRG-mice bearing LNCaP tumors
Assay: Biodistribution (and PET/SPECT imaging) in NRG-mice bearing LNCaP tumors
Format: in vivo
Settings: 72 h p.i., Avg
*1 amine or outer side, *2 acyl side, *3 side chain or, on linkers, in order; H or OH if unused. Where a SMILES comes first, the peptide text is derived from it. [ ]: non-standard residue; d: D form. The star is where a group is joined. ξ: configuration not given here. ξLys(Nα-CO-ξAad) = O=C(O)CCCC(NC(=O)NC(CCCCN*)C(=O)O)C(=O)O; Butanoyl(4-(4-NO2Ph)) = O=C(CCCc1ccc([N+](=O)[O-])cc1)*; DOTA = O=C(O)CN1CCN(CC(=O)O)CCN(CC(=O)*)CCN(CC(=O)O)CC1; Butanoyl(4-(4-MeO-phenyl)) = COc1ccc(CCCC(=O)*)cc1; ξAla(9-anthryl) = NC(Cc1c2ccccc2cc2ccccc12)C(=O)O; X2 = O=C(NC(CCCCN*)C(=O)O)NC(CC(F)C(=O)O)C(=O)O; X1 = O=C(C1CCC(CN[*:1])CC1)[*:2]; ξK = NCCCCC(N)C(=O)O
Kind request: treat 0.3 % ID/g as inclusive, so Biodistribution: Salivary gland at 0.3 % ID/g or higher is true, anything lower is false.

Tell me whether Biodistribution: Salivary gland is at least 0.3 % ID/g here: COc1ccc(CCCC(=O)NCC(=O)NC(CCCCNC(=O)CN2CCN(CC(=O)[O-])CCN(CC(=O)[O-])CCN(CC(=O)[O-])CC2)C(=O)NCC(=O)NCC2CCC(C(=O)NC(Cc3c4ccccc4cc4ccccc34)C(=O)NCCCCC(NC(=O)NC(CC(F)C(=O)O)C(=O)O)C(=O)O)CC2)cc1.[177Lu+3] (centres unmarked) [^177Lu-CCZ02008] ({Butanoyl(4-(4-MeO-phenyl))}-G[ξK](DOTA)G[X1][ξAla(9-anthryl)]-X2) true

And O=C([O-])CN1CCN(CC(=O)[O-])CCN(CC(=O)NCCCCC(NC(=O)CNC(=O)CCCc2ccc([N+](=O)[O-])cc2)C(=O)NCC(=O)NCC2CCC(C(=O)NC(Cc3c4ccccc4cc4ccccc34)C(=O)NCCCCC(NC(=O)NC(CCCC(=O)O)C(=O)O)C(=O)O)CC2)CCN(CC(=O)[O-])CC1.[225Ac+3] (centres unmarked) [^225Ac-CCZ02017] ({Butanoyl(4-(4-NO2Ph))}-G[ξK](DOTA)G[X1][ξAla(9-anthryl)]-{ξLys(Nα-CO-ξAad)}) ? true

And O=C([O-])CN1CCN(CC(=O)[O-])CCN(CC(=O)NCCCCC(NC(=O)CNC(=O)CCCc2ccc([N+](=O)[O-])cc2)C(=O)NCC(=O)NCC2CCC(C(=O)NC(Cc3c4ccccc4cc4ccccc34)C(=O)NCCCCC(NC(=O)NC(CCCC(=O)O)C(=O)O)C(=O)O)CC2)CCN(CC(=O)[O-])CC1.[177Lu+3] (centres unmarked) [^177Lu-CCZ02017] ({Butanoyl(4-(4-NO2Ph))}-G[ξK](DOTA)G[X1][ξAla(9-anthryl)]-{ξLys(Nα-CO-ξAad)}) ? false

And COc1ccc(CCCC(=O)NCC(=O)NC(CCCCNC(=O)CN2CCN(CC(=O)[O-])CCN(CC(=O)[O-])CCN(CC(=O)[O-])CC2)C(=O)NCC2CCC(C(=O)NC(Cc3c4ccccc4cc4ccccc34)C(=O)NCCCCC(NC(=O)NC(CCCC(=O)O)C(=O)O)C(=O)O)CC2)cc1.[177Lu+3] (centres unmarked) [^177Lu-HTK03170, reference compound] ? true

And COc1ccc(CCCC(=O)NCC(=O)NC(CCCCNC(=O)CN2CCN(CC(=O)[O-])CCN(CC(=O)[O-])CCN(CC(=O)[O-])CC2)CC(=O)NCC2CCC(C(=O)NC(Cc3c4ccccc4cc4ccccc34)C(=O)NCCCCC(NC(=O)NC(CC(F)C(=O)O)C(=O)O)C(=O)O)CC2)cc1.[177Lu+3] (centres unmarked) [^177Lu-CCZ02019] ? false
